Values were extracted from patent US5008245A.

# TARGET: HLE (human leukocyte elastase) (Homo sapiens)
# PROCEDURE TEXT: Inhibition of HLE by desmosine-like peptidyl carbamates, steady state kinetics (Dixon plot, Lineweaver-Burk slope replot)
# Assay type: biochemical
# PROTOCOL CONDITIONS: Table 1, variations in P4; Lineweaver-Burk slope replots, correlations >0.990; read-out: Ki value (μM) Replot
EXPERIMENTAL READOUT: Ki
Answer with the figure and its unit, nothing else.

Item: COC(=O)CCC(=O)NC(CCCNC(=O)OCc1ccccc1)C(=O)NC(C)C(=O)N1CCCC1C(=O)CN(C(=O)Oc1ccc([N+](=O)[O-])cc1)C(C)C (single isomer, unassigned) [Compound 46b] | Ki: 7.95 µM

Query COC(=O)CCC(=O)NC(CCCCNC(=O)OCc1ccccc1)C(=O)NC(C)C(=O)N1CCCC1C(=O)CN(C(=O)Oc1ccc([N+](=O)[O-])cc1)C(C)C (single isomer, unassigned) [Compound 44a] yields Ki of 0.47 µM

***
The measured Ki associated with COC(=O)CCC(=O)NC(CCCCNC(=O)OCc1ccccc1)C(=O)NC(C)C(=O)N1CCCC1C(=O)CN(C(=O)Oc1ccc([N+](=O)[O-])cc1)C(C)C (single isomer, unassigned) [Compound 44b] reads 7.63 µM

----------
# TARGET: HLE (human leukocyte elastase) (Homo sapiens, UniProt P08246)
# Sequence (P08246 30-267): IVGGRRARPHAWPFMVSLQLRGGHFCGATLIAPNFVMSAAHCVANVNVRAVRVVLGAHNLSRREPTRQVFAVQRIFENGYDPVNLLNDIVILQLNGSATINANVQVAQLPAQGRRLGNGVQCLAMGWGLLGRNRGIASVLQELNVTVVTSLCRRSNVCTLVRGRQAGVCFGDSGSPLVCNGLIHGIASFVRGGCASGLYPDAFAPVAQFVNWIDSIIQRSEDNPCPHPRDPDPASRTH
# PROCEDURE TEXT: Inhibition of HLE by desmosine-like peptidyl carbamates, steady state kinetics (Dixon plot, Lineweaver-Burk slope replot)
# Type: biochemical
# PROTOCOL CONDITIONS: Ki (μM) HLE, Ex. 67 table, variations at P3
EXPERIMENTAL READOUT: Ki

# value of Ki, HLE (human leukocyte elastase) (Homo sapiens, UniProt P08246), item COC(=O)CCC(=O)N[C@@H](C)C(=O)N[C@@H](CCCCNC(=O)OCc1ccccc1)C(=O)N1CCC[C@@H]1C(=O)CN(C(=O)Oc1ccc([N+](=O)[O-])cc1)C(C)C [Compound 48b] = 11.3 µM

----------
# TARGET: HLE (human leukocyte elastase) (Homo sapiens, UniProt P08246)
# PROCEDURE TEXT: Inhibition of HLE by desmosine-like peptidyl carbamates, steady state kinetics (Dixon plot, Lineweaver-Burk slope replot)
# Format: biochemical
# PROTOCOL CONDITIONS: Ki values (μM) Replot, Table 2, variations in P3; Lineweaver-Burk slope replots, correlations >0.990
# Method: ^c Lines contained linear regression analysis correlations of >0.950. ^d Ki values determined from LineweaverBurk slope replots. Slope were obtained from lines with linear regression analysis correlations of ^a Ki value was determined by steady state kinetics. These studies are conducted to show the activities of some of the compounds of this invention as inhibitors of various forms of the enzyme elastase.
EXPERIMENTAL READOUT: Ki (µM)
Please give a number only; it is taken to be in µM.

// Ki (HLE (human leukocyte elastase) (Homo sapiens, UniProt P08246)) for COC(=O)CCC(=O)N[C@@H](C)C(=O)N[C@@H](CCCCNC(=O)OCc1ccccc1)C(=O)N1CCC[C@@H]1C(=O)CN(C(=O)Oc1ccc([N+](=O)[O-])cc1)C(C)C [Compound 48b] = 11.3

Next compound, please.
The compound COC(=O)CCC(=O)N[C@@H](C)C(=O)N[C@@H](CCCNC(=O)c1ccccc1)C(=O)N1CCC[C@@H]1C(=O)CN(C(=O)Oc1ccc([N+](=O)[O-])cc1)C(C)C [Compound 51b] , tested on HLE (human leukocyte elastase) (Homo sapiens, UniProt P08246), showed Ki of 100
